Biological target: GSK3b (GST-full length GSK3b) (Homo sapiens (Human), UniProt P49841)
Sequence (P49841 whole entry): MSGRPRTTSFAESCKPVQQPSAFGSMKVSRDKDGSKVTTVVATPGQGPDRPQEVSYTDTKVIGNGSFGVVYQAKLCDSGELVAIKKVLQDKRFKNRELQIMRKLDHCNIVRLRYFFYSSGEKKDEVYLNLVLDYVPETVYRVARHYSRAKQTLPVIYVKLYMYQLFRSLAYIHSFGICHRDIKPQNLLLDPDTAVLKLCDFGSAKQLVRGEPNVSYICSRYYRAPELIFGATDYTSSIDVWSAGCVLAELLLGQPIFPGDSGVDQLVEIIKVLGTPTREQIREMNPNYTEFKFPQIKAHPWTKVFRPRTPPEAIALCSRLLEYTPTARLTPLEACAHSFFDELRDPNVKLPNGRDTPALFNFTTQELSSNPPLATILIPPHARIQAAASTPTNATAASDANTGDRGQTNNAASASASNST
Assay: GSK3b TR-FRET kinase assay
Format: biochemical
Conditions: 1 nM GSK3b, 2 μM ATP, 30 minute preincubation, Table 16; read-out: GSK3-B TR-FRET BIOCHEMICAL (TR-FRET)
readout-type: IC50

Study these solved cases before continuing.
1) CCC1(c2cccc(-c3ccnc(C(C)O)c3)c2)C2=C(CC(C)(C)CC2=O)Nc2n[nH]cc21 (stereo not shown) :: 100 to 1000 nM
2) CC[C@]1(c2cccc(OCC(F)F)c2)C2=C(CC(C)(C)CC2=O)Nc2n[nH]cc21 :: > 5000 nM
3) COc1ccc(S(=O)(=O)N2CCC3(CC2)C2=C(CC(C)(C)CC2=O)Nc2n[nH]cc23)cc1Cl :: ≤ 100 nM

Moving on to the next compound.
Would you kindly share the measured IC50 for `CC[C@]1(c2cccc(Cc3ncccc3C(F)(F)F)c2)C2=C(CC(C)(C)CC2=O)Nc2n[nH]cc21` ?
> 5000 nM

----------
Biological target: GSK3b (GST-full length GSK3b) (Homo sapiens (Human), UniProt P49841)
Experiment: GSK3b TR-FRET kinase assay
Assay type: biochemical
Settings: 1 nM GSK3b, 2 μM ATP, 30 minute preincubation, Table 16; read-out: GSK3-B TR-FRET BIOCHEMICAL (TR-FRET)
Assign IC50 to each entry below.

1) CCC1(c2cccc(C(F)(F)F)c2)C2=C(CC3(CCNC3=O)CC2=O)Nc2n[nH]cc21 (stereo not shown) [Compound 950331] :: > 5000 nM
2) CC[C@]1(c2cccc(-c3cc(C)nn3C)c2)C2=C(CC(C)(C)CC2=O)Nc2n[nH]c(C(F)(F)F)c21 :: > 5000 nM
3) CC[C@@]1(c2cccc(C(F)(F)F)c2)C2=C(Nc3n[nH]cc31)[C@H](C)N(C)C2=O :: 100 to 1000 nM
4) CC1(C)CC(=O)C2=C(C1)Nc1n[nH]cc1C21CN(S(=O)(=O)c2ccccn2)C1 :: ≤ 100 nM
5) CCC1(c2cccc(-c3ccnc(C)c3C)c2)C2=C(CC(C)(C)CC2=O)Nc2n[nH]cc21 (stereo not shown) [Compound 943516] :: ≤ 100 nM
6) CC[C@]1(c2cccc([C@H](C)c3ncccn3)c2)C2=C(CC(C)(C)CC2=O)Nc2n[nH]cc21 :: ≤ 100 nM

Moving on to the next compound.
Would you kindly share the measured IC50 for CCC1(c2cccc(-c3cnn4c3CCC4)c2)C2=C(CC(C)(C)CC2=O)Nc2n[nH]cc21 (stereo not shown) ?
100 to 1000 nM

----------
Assign pIC50 to each entry below.
Target: GSK3α (GST-full length GSK3α) (Homo sapiens (Human), UniProt P49840)
Sequence (P49840 whole entry): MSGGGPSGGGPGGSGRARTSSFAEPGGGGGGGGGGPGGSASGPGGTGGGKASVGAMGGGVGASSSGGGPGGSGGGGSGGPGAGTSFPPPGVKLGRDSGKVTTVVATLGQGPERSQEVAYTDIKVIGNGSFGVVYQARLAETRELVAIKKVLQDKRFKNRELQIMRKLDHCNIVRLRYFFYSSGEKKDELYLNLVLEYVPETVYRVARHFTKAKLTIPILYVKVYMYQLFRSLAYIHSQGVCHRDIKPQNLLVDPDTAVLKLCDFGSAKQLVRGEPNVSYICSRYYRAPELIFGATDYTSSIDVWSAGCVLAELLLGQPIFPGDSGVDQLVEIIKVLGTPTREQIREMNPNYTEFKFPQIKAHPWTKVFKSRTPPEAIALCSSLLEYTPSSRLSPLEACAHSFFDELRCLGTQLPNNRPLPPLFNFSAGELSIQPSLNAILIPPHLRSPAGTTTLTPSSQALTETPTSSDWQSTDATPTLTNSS
Assay: GSK3α TR-FRET kinase assay
Assay type: biochemical
Details: 1 nM GSK3α, 4 μM ATP, 30 minute preincubation; geometric mean; read-out: GSK3-A TR-FRET BIOCHEMICAL (TR-FRET); GMean; IC50
pIC50: −log10 of the molar value.

Study these solved cases before continuing.
1) CCC1(c2cccc(-c3ccncc3C)c2)C2=C(CC3(CCCC3)NC2=O)Nc2n[nH]cc21 (stereo not shown) [Compound 948021] :: 6.00 to 7.00
2) CCC1(c2cccc(-c3cn(C)nc3C)c2)C2=C(CC(C)(C)NC2=O)Nc2n[nH]c(F)c21 (stereo not shown) [Compound 948301] :: ≥ 7.00
3) CCC1(c2cccc(N3CCCC3)c2)C2=C(CC(C)(C)CC2=O)Nc2n[nH]c(C(F)(F)F)c21 (stereo not shown) [Compound 819575] :: 6.00 to 7.00
4) CC[C@]1(c2ccc(C)cc2)C2=C(CC(C)(C)CC2=O)Nc2n[nH]cc21 [Compound 789458] :: < 5.30
5) CC1(C)CC(=O)C2=C(C1)Nc1[nH]nc(C3(C(F)(F)F)CC3)c1C21CCc2c(F)cccc21 (stereo not shown) [Compound 810591] :: 6.00 to 7.00

Please report pIC50 for every entry that follows.
1. CCC1(c2cccc(-c3ccncc3C)c2)C2=C(CC3(CCC3)NC2=O)Nc2n[nH]cc21 (stereo not shown) [Compound 948523]
2. CC[C@]1(c2cccc(S(=O)(=O)C(C)C)c2)C2=C(CC(C)(C)NC2=O)Nc2n[nH]c(C(F)(F)F)c21 [Compound 948419]

≥ 7.00
≥ 7.00

----------
Biological target: GSK3b (GST-full length GSK3b) (Homo sapiens (Human), UniProt P49841)
Assay: GSK3b TR-FRET kinase assay
Format: biochemical
Conditions: 1 nM GSK3b, 2 μM ATP, 30 minute preincubation; geometric mean; read-out: GSK3-B TR-FRET BIOCHEMICAL (TR-FRET); GMean; IC50
pIC50: −log10 of the molar value.
Assign pIC50 to each entry below.

Study these solved cases before continuing.
1) CCC1(c2cccc(N3CCCCC3)c2)C2=C(CC(C)(C)NC2=O)Nc2n[nH]c(C(F)(F)F)c21 (stereo not shown) :: ≥ 7.00
2) CCC1(c2ccccc2)C2=C(CCC(C)(C)C2=O)Nc2n[nH]cc21 (stereo not shown) :: 5.30 to 6.00
3) CCC1(c2cccc(-c3ccnc(C)c3F)c2)C2=C(CC(C)(C)NC2=O)Nc2n[nH]c(C)c21 (stereo not shown) [Compound 947563] :: 6.00 to 7.00
4) CCC1(c2cccc(C(F)(F)F)c2)C2=C(CCN(c3ccc(C)cc3)C2=O)Nc2n[nH]cc21 (stereo not shown) :: 6.00 to 7.00
5) CCC1(c2cccc(-c3ccnc(C)c3F)c2)C2=C(CC(C)(C)NC2=O)Nc2n[nH]c(C)c21 (stereo not shown) [Compound 947402] :: 6.00 to 7.00
6) CC[C@]1(c2cccc(-c3cc(OC)ncc3F)c2)C2=C(CC(C)(C)NC2=O)Nc2n[nH]cc21 :: 6.00 to 7.00

Would you kindly share the measured pIC50 for `CC[C@@]1(c2cccc(-c3ccnc4c3cnn4C)c2)C2=C(CC(C)(C)NC2=O)Nc2n[nH]cc21` ?
< 5.30

----------
Target: GSK3α (GST-full length GSK3α) (Homo sapiens (Human))
Assay: GSK3α TR-FRET kinase assay
Assay type: biochemical
Conditions: read-out: GSK3-A (TR-FRET 1 mM ATP); GMean; IC50; 1 mM ATP; geometric mean
pIC50: −log10 of the molar value.
readout-type: pIC50

1. C[S+]([O-])c1cccc(C2(C)C3=C(CC(C)(C)CC3=O)Nc3n[nH]c(CC(C)(C)C)c32)c1 (centres unmarked) [Compound 126190] :: 5.30 to 6.00

Please report pIC50 for every entry that follows.
1. CCC1(c2cccc(-c3ccncc3C)c2)C2=C(CC(C)(C)NC2=O)Nc2n[nH]c(C(F)(F)F)c21 (centres unmarked) [Compound 947404]
2. CCC1(c2cccc(N(C)c3nccc(C)n3)c2)C2=C(CC(C)(C)CC2=O)Nc2n[nH]cc21 (centres unmarked) [Compound 942642]
3. CC[C@]1(c2cccc(-c3c(C#N)cnn3C)c2)C2=C(CC(C)(C)NC2=O)Nc2n[nH]c(C)c21 [Compound 952410]

["≥ 7.00", "≥ 7.00", "6.00 to 7.00"]

----------
Molecular target: UniProt:P49841
Assay: GSK3b TR-FRET kinase assay
Assay type: biochemical
Conditions: read-out: GSK3-B (TR-FRET 1 mM ATP); GMean; IC50; 1 mM ATP; geometric mean
pIC50: −log10 of the molar value.
readout-type: pIC50

Study these solved cases before continuing.
1) CCC1(c2cccc(-c3ccncc3Cl)c2)C2=C(CC(C)(C)NC2=O)Nc2n[nH]cc21 (stereo not drawn) :: 6.00 to 7.00
2) CCC1(c2cccc(-c3cn(C)nc3C)c2)C2=C(CC(C)(C)NC2=O)Nc2n[nH]c(C(F)(F)F)c21 (stereo not drawn) :: ≥ 7.00
3) CCC1(c2cccc(N3CCCCC3)c2)C2=C(CC(C)(C)NC2=O)Nc2n[nH]c(C(F)(F)F)c21 (stereo not drawn) [Compound 947861] :: 6.00 to 7.00
4) CC(C)(C)Cc1[nH]nc2c1C(C)(c1cccc(S(C)(=O)=O)c1)C1=C(CC(C)(C)CC1=O)N2 (stereo not drawn) :: ≥ 7.00
5) CC[C@]1(c2cccc(-c3cn(C)nc3C)c2)C2=C(CC(C)(C)CC2=O)Nc2n[nH]cc21 :: 6.00 to 7.00
6) CCC1(c2cccc(-c3cnn4c3CCCC4)c2)C2=C(CC(C)(C)CC2=O)Nc2n[nH]c(C)c21 (stereo not drawn) :: 6.00 to 7.00

Please report pIC50 for every entry that follows.
1. CC1(C)CC(=O)C2=C(C1)Nc1n[nH]cc1C21COC2(CN(C(=O)C3CCC3)C2)C1 (stereo not drawn)
2. CCC1(c2cccc(-c3cc(C)ncc3C)c2)C2=C(CC(C)(C)CC2=O)Nc2n[nH]c(C(F)(F)F)c21 (stereo not drawn)
3. CC[C@@]1(c2cccc(-c3ccncc3F)c2)C2=C(CC(C)(C)NC2=O)Nc2n[nH]c(Cl)c21
4. CCC1(c2cccc(S(=O)(=O)C3CCCCC3)c2)C2=C(CC(C)(C)CC2=O)Nc2n[nH]cc21 (stereo not drawn)
5. CC[C@]1(c2cccc(-c3ccncc3C(F)(F)F)c2)C2=C(CC(C)(C)NC2=O)Nc2n[nH]cc21

6.00 to 7.00
6.00 to 7.00
5.30 to 6.00
5.30 to 6.00
5.30 to 6.00

Data provenance: patent US20250313563A1
